This collection of values is drawn from paper PMC9482650.

biological target: NHERF4_1, Q86UT5-2; assay: holdup assay; set-up: key: below the threshold = too weak to quantify, mostly under pKd 3.1 to 4; details: plain residues with an end cap or a label only (N-terminal biotin on a linker: ado-ado)
Sequence (Q86UT5 other isoform, or with tags, fused parts or gaps): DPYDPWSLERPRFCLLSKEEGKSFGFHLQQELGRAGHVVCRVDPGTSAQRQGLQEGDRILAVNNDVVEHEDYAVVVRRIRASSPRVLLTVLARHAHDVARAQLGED
Measured quantity: pKd
Give the figure by itself; no unit, no explanation.

| Binder | Measured quantity | Test result |
| --- | --- | --- |
| EDPRVEVTQF [SLC22A9, Q8IVM8] | pKd | 4.3 |
| NISYRRESAI [KCNJ4, P48050] | pKd | 3.48 |
| KKMLQRRTLL [OR8G1, Q15617] | pKd | 4.51 |

Which pKd reading was recorded for the binder QSGLYESEEL [MYOT, Q9UBF9] ?
4.41

Which pKd reading was recorded for the binder ELSATVTTDC [TRIP6, Q15654] ?
3.69
